assay: Compound chemical stability SGF without pepsin; conditions: 240 minutes
Record form. Attribute: % Remaining. Fill in for each entry.
Provide the reading as a plain figure in %.

Can you look up the measured % Remaining of C[C@H](Cc1ccc2c(c1)OCO2)N(C)C(=O)OC(C)(C)C [Compound 7] for me?
30.52

Can you look up the measured % Remaining of CC(OC(=O)N(C)C(C)Cc1ccc2c(c1)OCO2)OC(=O)C(C)(C)C (stereo not drawn) [Compound 3] for me?
94.12

Can you look up the measured % Remaining of CCOC(=O)NC(C)Cc1ccc2c(c1)OCO2 (stereo not drawn) [Compound 2] for me?
99.40

Can you look up the measured % Remaining of CC(Cc1ccc2c(c1)OCO2)NC(=O)CN (stereo not drawn) [Compound 5] for me?
100.41

Can you look up the measured % Remaining of CCOC(=O)N(C)C(C)Cc1ccc2c(c1)OCO2 (stereo not drawn) [Compound 1] for me?
104.29

Can you look up the measured % Remaining of CC(Cc1ccc2c(c1)OCO2)N(C)C(=O)CN (stereo not drawn) [Compound 4] for me?
96.46

Can you look up the measured % Remaining of Cc1oc(=O)oc1CN(C)[C@H](C)Cc1ccc2c(c1)OCO2 [Compound 9] for me?
72

Can you look up the measured % Remaining of Cc1oc(=O)oc1CN[C@H](C)Cc1ccc2c(c1)OCO2 [Compound 8] for me?
86

Can you look up the measured % Remaining of C[C@H](Cc1ccc2c(c1)OCO2)NC(=O)OC(C)(C)C [Compound 6] for me?
28.57

---

assay: Compound mouse plasma stability; conditions: 30 minutes
readout name: % Remaining
In your response, put the unit directly after the numeric value.

Can you look up the measured % Remaining of Cc1oc(=O)oc1CN[C@H](C)Cc1ccc2c(c1)OCO2 for me?
54%

Can you look up the measured % Remaining of CCOC(=O)NC(C)Cc1ccc2c(c1)OCO2 (stereo not shown) for me?
86.60%

Can you look up the measured % Remaining of CC(OC(=O)N(C)C(C)Cc1ccc2c(c1)OCO2)OC(=O)C(C)(C)C (stereo not shown) for me?
0.0%

Can you look up the measured % Remaining of CCOC(=O)N(C)C(C)Cc1ccc2c(c1)OCO2 (stereo not shown) for me?
87.67%

---

experiment: Compound chemical stability SGF with pepsin; conditions: 120 minutes
Everything with % Remaining lower than 90% is label 0; everything else, including exactly 90%, is label 1.

Given the entry Cc1oc(=O)oc1CN(C)[C@H](C)Cc1ccc2c(c1)OCO2 , answer whether its % Remaining meets or surpasses 90%.
label 0

Given the entry CC(Cc1ccc2c(c1)OCO2)NC(=O)CN (centres unmarked) , answer whether its % Remaining meets or surpasses 90%.
label 1

Given the entry CC(Cc1ccc2c(c1)OCO2)N(C)C(=O)CN (centres unmarked) , answer whether its % Remaining meets or surpasses 90%.
label 1

Given the entry CC(OC(=O)N(C)C(C)Cc1ccc2c(c1)OCO2)OC(=O)C(C)(C)C (centres unmarked) , answer whether its % Remaining meets or surpasses 90%.
label 1

Given the entry CCOC(=O)NC(C)Cc1ccc2c(c1)OCO2 (centres unmarked) , answer whether its % Remaining meets or surpasses 90%.
label 1

---

experiment: Compound chemical stability PBS (pH 6.5); settings: PBS pH 6.5, 240 minutes
Everything with % Remaining lower than 90% is class 0; everything else, including exactly 90%, is class 1.

Given the entry Cc1oc(=O)oc1CN(C)[C@H](C)Cc1ccc2c(c1)OCO2 , answer whether its % Remaining meets or surpasses 90%.
class 0

Given the entry CC(OC(=O)N(C)C(C)Cc1ccc2c(c1)OCO2)OC(=O)C(C)(C)C (centres unmarked) , answer whether its % Remaining meets or surpasses 90%.
class 1

---

Record form. Attribute: % Remaining. Fill in for each entry.
test: Compound mouse plasma stability; settings: 120 minutes
Provide the reading as a plain figure in %.

Can you look up the measured % Remaining of Cc1oc(=O)oc1CN[C@H](C)Cc1ccc2c(c1)OCO2 for me?
6

Can you look up the measured % Remaining of CC(Cc1ccc2c(c1)OCO2)NC(=O)CN (stereo not drawn) for me?
83.06

Can you look up the measured % Remaining of CC(Cc1ccc2c(c1)OCO2)N(C)C(=O)CN (stereo not drawn) for me?
87.42

---

test: Compound chemical stability SGF without pepsin; details: 60 minutes
readout name: % Remaining (%)
Provide the reading as a plain figure in %.

Can you look up the measured % Remaining of CC(OC(=O)N(C)C(C)Cc1ccc2c(c1)OCO2)OC(=O)C(C)(C)C (stereo not shown) for me?
97.35

Can you look up the measured % Remaining of Cc1oc(=O)oc1CN[C@H](C)Cc1ccc2c(c1)OCO2 for me?
94

Can you look up the measured % Remaining of CC(Cc1ccc2c(c1)OCO2)NC(=O)CN (stereo not shown) for me?
91.48

Can you look up the measured % Remaining of CCOC(=O)N(C)C(C)Cc1ccc2c(c1)OCO2 (stereo not shown) for me?
101.90

---

assay: Compound chemical stability SGF with pepsin; conditions: 60 minutes
Record form. Attribute: % Remaining. Fill in for each entry.
Provide the reading as a plain figure in %.

Can you look up the measured % Remaining of CC(Cc1ccc2c(c1)OCO2)NC(=O)CN (stereo not drawn) [Compound 5] for me?
105.84

Can you look up the measured % Remaining of Cc1oc(=O)oc1CN[C@H](C)Cc1ccc2c(c1)OCO2 [Compound 8] for me?
98

Can you look up the measured % Remaining of CCOC(=O)NC(C)Cc1ccc2c(c1)OCO2 (stereo not drawn) [Compound 2] for me?
97.74

Can you look up the measured % Remaining of Cc1oc(=O)oc1CN(C)[C@H](C)Cc1ccc2c(c1)OCO2 [Compound 9] for me?
92

Can you look up the measured % Remaining of C[C@H](Cc1ccc2c(c1)OCO2)N(C)C(=O)OC(C)(C)C [Compound 7] for me?
63.49

Can you look up the measured % Remaining of CC(OC(=O)N(C)C(C)Cc1ccc2c(c1)OCO2)OC(=O)C(C)(C)C (stereo not drawn) [Compound 3] for me?
108.51

---

assay: Compound chemical stability SGF without pepsin; conditions: 0 minutes
readout name: % Remaining
In your response, put the unit directly after the numeric value.

Can you look up the measured % Remaining of CCOC(=O)NC(C)Cc1ccc2c(c1)OCO2 (stereo not drawn) [Compound 2] for me?
100.00%

Can you look up the measured % Remaining of CC(OC(=O)N(C)C(C)Cc1ccc2c(c1)OCO2)OC(=O)C(C)(C)C (stereo not drawn) [Compound 3] for me?
100.00%

Can you look up the measured % Remaining of CC(Cc1ccc2c(c1)OCO2)N(C)C(=O)CN (stereo not drawn) [Compound 4] for me?
100.00%

---

test: Compound mouse plasma stability; conditions: 60 minutes
Record form. Attribute: % Remaining. Fill in for each entry.
Provide the reading as a plain figure in %.

Can you look up the measured % Remaining of C[C@H](Cc1ccc2c(c1)OCO2)NC(=O)OC(C)(C)C for me?
92

Can you look up the measured % Remaining of Cc1oc(=O)oc1CN(C)[C@H](C)Cc1ccc2c(c1)OCO2 for me?
4

Can you look up the measured % Remaining of CCOC(=O)N(C)C(C)Cc1ccc2c(c1)OCO2 (stereo not drawn) for me?
98.49

Can you look up the measured % Remaining of CC(Cc1ccc2c(c1)OCO2)N(C)C(=O)CN (stereo not drawn) for me?
94.51

Can you look up the measured % Remaining of C[C@H](Cc1ccc2c(c1)OCO2)N(C)C(=O)OC(C)(C)C for me?
83

Can you look up the measured % Remaining of CC(Cc1ccc2c(c1)OCO2)NC(=O)CN (stereo not drawn) for me?
90.78

---

assay: Compound chemical stability PBS (pH 6.5); details: PBS pH 6.5, 240 minutes
Record form. Attribute: % Remaining. Fill in for each entry.
Provide the reading as a plain figure in %.

Can you look up the measured % Remaining of CCOC(=O)NC(C)Cc1ccc2c(c1)OCO2 (stereo not drawn) for me?
88.66

Can you look up the measured % Remaining of C[C@H](Cc1ccc2c(c1)OCO2)NC(=O)OC(C)(C)C for me?
91.66

Can you look up the measured % Remaining of CC(Cc1ccc2c(c1)OCO2)N(C)C(=O)CN (stereo not drawn) for me?
92.48
